# Tested on: TK-10 renal
# test_description: NCI tumour cell line growth inhibition, 48 h
Reported values of GI50 for individual entries

Record excerpt, results attached:
>>> result("CCOC(=O)/C=C/C1=C(c2csc3ccccc23)c2ccccc2CC1")
"16.6 µM"
>>> result("Cc1nc2cc(-n3c(-c4ccc(F)cc4)nc4ccccc4c3=O)ccc2n1Cc1ccccc1")
"2.73 µM"

stdin: Give the measured GI50 of "COc1cccc(/C=N/Nc2ncnc3c2cnn3-c2cccc(OC)c2)c1" .
stdout: > 25 µM

stdin: Give the measured GI50 of "CN1CCN(c2ccc3nc(-c4c5cccccc-5[nH]c4=O)[nH]c3c2)CC1" .
stdout: 27.9 µM
